# Test system: OVCAR-3 ovarian
# ASSAY_OVERVIEW: NCI-60 one-dose screen, 48 h (100 = growth as untreated, 0 = no growth, -100 = all killed)
# SETUP_CONDITIONS: 10 µM unless noted
About 83,000 compounds went through this panel and 20% of them were active in at least one assay; those are over-represented in the sample as a whole.
Mark Satisfied for growth under 30%, Not satisfied if at or over.

> print(dat)
                                    compound  class.assignment
 1  COc1cccc(-c2nc3sccn3c2-c2ccnc(NCCNS(=O)(=O)c3cccc(F)c3)c2)c1     Not satisfied
 2  Cn1c(I)c(C#C[Si](C)(C)C)c(=O)n(C(=O)c2ccccc2)c1=O         Satisfied
 3  COc1ccc(-c2[nH]c(=S)n(C(CC3(C)NCC(=O)N3n3c(-c4ccccc4)cc(C)nc3=S)c3ccc(OC)cc3)c(=O)c2Br)cc1 (stereo unspecified)     Not satisfied
 4  Cc1ccc(N(C(=O)CCc2c[nH]c3ccccc23)[C@H](C(=O)Nc2ccc(Cl)cc2)c2cccc([N+](=O)[O-])c2)cc1     Not satisfied
 5  CN1CCN(CCCOc2ccc3nc(Nc4ccc(F)c(F)c4)ccc3c2)CC1     Not satisfied
 6  O=C(Nc1cccc2c(O)c(N=Nc3ccc(S(=O)(=O)Nc4nccs4)cc3)cc(N=Nc3ccc(S(=O)(=O)Nc4nccs4)cc3)c12)C(Cl)Cl     Not satisfied
 7  C=C1C(=O)O[C@H]2[C@H]1CC/C(COC(=O)C(=O)c1cn(C)c3ccc(OC)cc13)=C\CC[C@@]1(C)O[C@@H]21         Satisfied
 8  COc1ccc(-c2ccc3c(c2)sc2nc(-c4ccc(F)cc4)cn23)cc1     Not satisfied
 9  C=C(C)[C@@H]1CC=C2c3sc(-c4ccc(C)cc4)nc3C[C@@H](C)[C@]2(C)C1     Not satisfied
10  N#C/C(=C\c1ccc2c(c1)OCO2)n1nnc2cc(F)c(F)cc21     Not satisfied

Query: Consider O=C(NCCCNc1cc(-c2cn(-c3ccccc3)nc2-c2cccc(O)c2)ccn1)c1ccccc1 . Does its growth lie strictly below 30%?
Response: Not satisfied

###

# Test system: RPMI-8226 leukemia
# ASSAY_OVERVIEW: NCI-60 one-dose screen, 48 h (100 = growth as untreated, 0 = no growth, -100 = all killed)
# SETUP_CONDITIONS: 10 µM unless noted
# Description: Growth inhibition of the RPMI-8226 human tumor cell line is measured as a screen for anti-cancer activity. Cells are grown in 96 well plates and exposed to the test compound for 48 hours. Compounds are tested at a single concentration, which is 10^-5 M for most compounds. The reported endpoint is percent growth (GI% or GIPRCNT), where numbers from 0 - 100% represent growth inhibition, and numbers from -100% - 0 represent cell death. For example, a value of 40 represents 60% growth inhibition. […]
About 83,000 compounds went through this panel and 20% of them were active in at least one assay; those are over-represented in the sample as a whole.
ASSAY_READOUT: growth (%)
Give the number; % is assumed, so skip it.

> print(dat)
                                   compound  unit.annotation  test.value
1  COc1ccc(-c2nc3sccn3c2-c2cc(-c3cc(OC)c(OC)c(OC)c3)on2)cc1                %        41.5
2  CCc1ccccc1-n1c(N)c(C#N)c(-c2ccc(N(C)C)cc2)c(C#N)c1=O                %        74.7
3  Cc1cc(/C=C\c2ccc3ccccc3[n+]2C)c(O)c2ncccc12                %          14
4  Cc1cc(O)c(C2=NN(c3ccc(S(N)(=O)=O)cc3)C(c3ccccc3Cl)C2)cc1Cl (stereo unspecified)                %          11
5  Cc1ccc2nc(NC(=O)CSc3nc(-c4ccccc4)c(C#N)c(=O)n3Cc3ccccc3)sc2c1                %        67.8

Query: So what does the record say about growth for Cc1ccc2nc3ccccc3c(NCc3ccccc3)c2c1 ?
Response: 6.82
